Listing of recorded IC50 by entry.
# target: CDK4/CyclinD1 (Homo sapiens (Human), UniProt P11802)
# Sequence (P11802 whole entry, species assumed): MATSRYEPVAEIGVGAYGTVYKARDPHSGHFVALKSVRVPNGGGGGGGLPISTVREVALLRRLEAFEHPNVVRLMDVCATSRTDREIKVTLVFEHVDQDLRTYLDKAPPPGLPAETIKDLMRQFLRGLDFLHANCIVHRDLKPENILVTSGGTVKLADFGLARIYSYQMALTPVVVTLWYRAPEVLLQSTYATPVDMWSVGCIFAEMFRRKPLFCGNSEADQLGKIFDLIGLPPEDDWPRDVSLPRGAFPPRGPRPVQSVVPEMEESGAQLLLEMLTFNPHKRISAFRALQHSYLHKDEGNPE
# Sequence (P24385 whole entry partner, species assumed): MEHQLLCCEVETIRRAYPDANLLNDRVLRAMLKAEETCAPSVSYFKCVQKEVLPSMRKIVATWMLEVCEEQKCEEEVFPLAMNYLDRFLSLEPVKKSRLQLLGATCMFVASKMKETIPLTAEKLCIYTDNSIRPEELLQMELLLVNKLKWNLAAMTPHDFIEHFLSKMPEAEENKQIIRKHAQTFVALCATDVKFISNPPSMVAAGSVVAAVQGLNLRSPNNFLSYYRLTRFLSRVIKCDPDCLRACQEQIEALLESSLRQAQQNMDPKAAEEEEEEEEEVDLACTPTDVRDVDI
# procedureText: CDK4/CyclinD1 kinase assay (Nanosyn, Caliper microfluidic)
# Assay type: biochemical
# conditionSet: Table 2; read-out: CDK4/CycD1 IC50
Express your answer in nM, writing the number without its unit.

Some entries whose results are on file:
CC1CN(c2ccc(Nc3ncc4cc5n(c4n3)C3(CCCCC3)CNC5=O)nc2)CCN1CC(C)(C)O (centres unmarked)
2.7
CN(C)C1CCN(c2ccc(Nc3ncc4cc5n(c4n3)C3(CCCCC3)CNC5=O)nn2)CC1
0.8
CC(C)N1CCN(c2ccc(Nc3ncc4cc5n(c4n3)C3(CCCC3)CNC5=O)nn2)CC1
2.6

Recorded IC50 of CN(C)C1CCN(c2ccc(Nc3ncc4cc5n(c4n3)C3(CCCC3)CNC5=O)nn2)CC1 , please.
3.4

Recorded IC50 of C[C@@H](O)CN1CCN(c2ccc(Nc3ncc4cc5n(c4n3)C3(CCCC3)CNC5=O)nc2)C[C@@H]1C , please.
3.3

Recorded IC50 of CCOCCN1CCN(c2ccc(Nc3ncc4cc5n(c4n3)C3(CCCC3)CNC5=O)nc2)CC1 , please.
3.2

Recorded IC50 of CCN1[C@H](C)CN(c2ccc(Nc3ncc4cc5n(c4n3)C3(CCCCC3)CNC5=O)nc2)C[C@@H]1C , please.
1.2

Recorded IC50 of O=C1NCC2(CCCCC2)n2c1cc1cnc(Nc3ccc(C(=O)N4CCNCC4)cn3)nc12 , please.
2.5

====

# target: CDK2/CyclinE (Homo sapiens (Human))
# procedureText: CDK2/CyclinE kinase assay (Nanosyn, Caliper microfluidic)
# Assay type: biochemical
# conditionSet: Table 2
valueKind: Fold Selectivity (CDK2/CycE/CDK4)
Returns: the value as a bare number; no unit string appended.

Lab note: need Fold Selectivity (CDK2/CycE/CDK4) for CC1CN(c2ccc(Nc3ncc4cc5n(c4n3)C3(CCCCC3)CNC5=O)nc2)C[C@@H](C)N1CC1CC1 (stereo partly drawn) [OO] on CDK2/CyclinE (Homo sapiens (Human)), anyone have it?
442

Lab note: need Fold Selectivity (CDK2/CycE/CDK4) for O=C1NCC2(CCCC2)n2c1cc1cnc(Nc3ccc(N4CCOCC4)nn3)nc12 [SSS] on CDK2/CyclinE (Homo sapiens (Human)), anyone have it?
1112

Lab note: need Fold Selectivity (CDK2/CycE/CDK4) for C[C@@H]1CN(c2ccc(Nc3ncc4cc5n(c4n3)C3(CCCCC3)CNC5=O)nc2)C[C@H](C)N1 [P] on CDK2/CyclinE (Homo sapiens (Human)), anyone have it?
1085

Lab note: need Fold Selectivity (CDK2/CycE/CDK4) for C[C@H]1CN(c2ccc(Nc3ncc4cc5n(c4n3)C3(CCCCC3)CNC5=O)nc2)CCN1CCC(C)(C)C [M] on CDK2/CyclinE (Homo sapiens (Human)), anyone have it?
1004

Lab note: need Fold Selectivity (CDK2/CycE/CDK4) for CC(C)N1CCN(c2ccc(Nc3ncc4cc5n(c4n3)C3(CCCC3)CNC5=O)nc2)CC1C (stereo not drawn) [GGG] on CDK2/CyclinE (Homo sapiens (Human)), anyone have it?
555

Lab note: need Fold Selectivity (CDK2/CycE/CDK4) for CN1CCN(C(=O)c2ccc(Nc3ncc4cc5n(c4n3)C3(CCCC3)CNC5=O)nc2)CC1 [BBB] on CDK2/CyclinE (Homo sapiens (Human)), anyone have it?
68

Lab note: need Fold Selectivity (CDK2/CycE/CDK4) for CC(C)[C@H]1CNC(=O)c2cc3cnc(Nc4ccc(N5CCNCC5)cn4)nc3n21 [UUU] on CDK2/CyclinE (Homo sapiens (Human)), anyone have it?
914

Lab note: need Fold Selectivity (CDK2/CycE/CDK4) for CC(C)(C)CCN1CCN(c2ccc(Nc3ncc4cc5n(c4n3)C3(CCCC3)CNC5=O)nc2)CC1 [KKK] on CDK2/CyclinE (Homo sapiens (Human)), anyone have it?
231

Lab note: need Fold Selectivity (CDK2/CycE/CDK4) for CC(C)N1CCN(c2ccc(Nc3ncc4cc5n(c4n3)C3(CCCCC3)CNC5=O)nn2)CC1 [TT] on CDK2/CyclinE (Homo sapiens (Human)), anyone have it?
1550
